Source listed as ChEMBL document CHEMBL2407016.

Catalogue of compounds with associated pIC50
Molecular target: 1-deoxy-D-xylulose 5-phosphate reductoisomerase (Mycobacterium tuberculosis)
Sequence (P9WNS1 whole entry): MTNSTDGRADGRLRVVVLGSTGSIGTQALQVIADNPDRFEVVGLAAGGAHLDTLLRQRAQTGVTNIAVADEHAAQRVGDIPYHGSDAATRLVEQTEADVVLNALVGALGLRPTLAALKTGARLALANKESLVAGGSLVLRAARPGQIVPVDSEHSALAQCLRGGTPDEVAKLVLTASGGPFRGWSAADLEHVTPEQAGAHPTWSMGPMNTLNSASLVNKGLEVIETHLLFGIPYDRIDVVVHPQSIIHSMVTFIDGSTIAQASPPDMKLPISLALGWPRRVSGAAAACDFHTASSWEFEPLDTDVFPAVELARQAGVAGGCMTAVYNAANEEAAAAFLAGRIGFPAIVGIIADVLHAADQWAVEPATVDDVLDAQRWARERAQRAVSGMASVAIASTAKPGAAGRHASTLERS
pIC50: −log10 of the molar value.
OBSERVED_PROPERTY: pIC50

- O=C(C1CC1)N(O)CCCP(=O)(O)O: 3.81
- O=C(c1ccccc1OC(F)(F)F)N(O)CCC(c1ccc(Cl)c(Cl)c1)P(=O)(O)O (stereo unspecified): 5.10
- O=C(c1cccnc1)N(O)CCCP(=O)(O)O: 5.80
- O=C(Cc1ccccc1)N(O)CCCP(=O)(O)O: 4.17
- O=C(c1ccccc1-c1ccccc1)N(O)CCC(c1ccc(Cl)c(Cl)c1)P(=O)(O)O (stereo unspecified): 4.68
- CCC(=O)N(O)CCCP(=O)(O)O: 4.57
- O=C(c1ccc2ccccc2c1)N(O)CCCP(=O)(O)O: 5.70
- O=C(c1cccc(Cn2cncn2)c1)N(O)CCC(c1ccc(Cl)c(Cl)c1)P(=O)(O)O (stereo unspecified): 6.85
- O=C(c1ccccc1)N(O)CCC(c1ccc(Cl)c(Cl)c1)P(=O)(O)O (stereo unspecified): 6.49
- O=C(c1ccccc1C(F)(F)F)N(O)CCC(c1ccc(Cl)c(Cl)c1)P(=O)(O)O (stereo unspecified): 5.05
- O=C(c1ccccc1Cn1cncn1)N(O)CCC(c1ccc(Cl)c(Cl)c1)P(=O)(O)O (stereo unspecified): 4.89

---

Target: 1-deoxy-D-xylulose 5-phosphate reductoisomerase (Mycobacterium tuberculosis) (UniProt P9WNS1)
Sequence (whole entry): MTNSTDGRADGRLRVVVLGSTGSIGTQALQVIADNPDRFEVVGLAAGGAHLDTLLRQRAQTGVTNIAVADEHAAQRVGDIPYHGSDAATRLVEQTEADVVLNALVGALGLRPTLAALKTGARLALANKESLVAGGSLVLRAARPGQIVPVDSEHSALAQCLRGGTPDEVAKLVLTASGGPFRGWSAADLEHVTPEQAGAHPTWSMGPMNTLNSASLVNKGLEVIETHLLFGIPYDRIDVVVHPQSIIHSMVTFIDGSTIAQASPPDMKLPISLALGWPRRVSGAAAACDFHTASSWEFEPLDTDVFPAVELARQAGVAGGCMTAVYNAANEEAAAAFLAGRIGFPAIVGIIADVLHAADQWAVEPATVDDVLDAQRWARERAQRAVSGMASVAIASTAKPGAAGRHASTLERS
Assay: Inhibition of Mycobacterium tuberculosis DXR using DXP as substrate at 100 uM measured every 5 secs for 250 secs in presence of NADPH relative to control
Each entry gets False if its inhibition stays under 80%, and True if its inhibition is 80% or above.

- O=C(c1ccccc1C(F)(F)F)N(O)CCC(c1ccc(Cl)c(Cl)c1)P(=O)(O)O (stereo unspecified): False
- O=C(c1ccccc1OC(F)(F)F)N(O)CCC(c1ccc(Cl)c(Cl)c1)P(=O)(O)O (stereo unspecified): True
- O=C(c1ccccc1)N(O)CCC(c1ccc(Cl)c(Cl)c1)P(=O)(O)O (stereo unspecified): True
- O=C(c1ccccc1Cc1cccs1)N(O)CCC(c1ccc(Cl)c(Cl)c1)P(=O)(O)O (stereo unspecified): True
- O=C(c1ccccc1-c1ccccc1)N(O)CCC(c1ccc(Cl)c(Cl)c1)P(=O)(O)O (stereo unspecified): False
- O=C(c1ccccc1Cn1cncn1)N(O)CCC(c1ccc(Cl)c(Cl)c1)P(=O)(O)O (stereo unspecified): False
- Cc1ccccc1C(=O)N(O)CCC(c1ccc(Cl)c(Cl)c1)P(=O)(O)O (stereo unspecified): True
- O=C(c1cccc(Cn2cncn2)c1)N(O)CCC(c1ccc(Cl)c(Cl)c1)P(=O)(O)O (stereo unspecified): True
- CC(=O)Oc1cccc(C(=O)N(O)CCC(c2ccc(Cl)c(Cl)c2)P(=O)(O)O)c1 (stereo unspecified): False
